target: CYP3A4 (Homo sapiens, UniProt P08684); assay: CYP450 inhibition, specific substrate approach in human liver microsomes: CYP3A4; type: in vitro ADME; parameters: using a specific substrate approach in human liver microsomes; from tissue; host or cells: human liver microsomes; settings: testosterone, read-out: CYP3A4-Testosterone IC50
Sequence (P08684 2-503): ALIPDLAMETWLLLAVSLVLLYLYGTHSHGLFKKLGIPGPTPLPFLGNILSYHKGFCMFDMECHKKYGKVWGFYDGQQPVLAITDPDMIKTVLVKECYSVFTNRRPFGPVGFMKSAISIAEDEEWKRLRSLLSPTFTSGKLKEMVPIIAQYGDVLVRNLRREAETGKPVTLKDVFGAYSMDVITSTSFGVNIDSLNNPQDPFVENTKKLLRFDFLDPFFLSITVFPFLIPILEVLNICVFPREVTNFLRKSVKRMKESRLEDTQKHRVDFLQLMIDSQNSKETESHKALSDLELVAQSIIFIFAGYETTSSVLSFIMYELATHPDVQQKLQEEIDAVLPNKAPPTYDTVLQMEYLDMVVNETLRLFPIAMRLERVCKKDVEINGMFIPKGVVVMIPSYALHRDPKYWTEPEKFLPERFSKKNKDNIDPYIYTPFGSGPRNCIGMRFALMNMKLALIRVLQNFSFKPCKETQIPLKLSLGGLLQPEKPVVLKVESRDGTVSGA
ASSAY_READOUT: IC50

Please review the following examples before continuing.
1) CCN(CC)Cc1nc2c(O)c(Cl)cc(Cl)c2c(=O)n1CC1CC1 | > 30 µM
2) Br.CCNCc1nc2c(O)c(Cl)cc(Cl)c2c(=O)n1C | 8.6 µM
3) CCn1c(CN(C)C)nc2c(O)c(Cl)cc(Cl)c2c1=O.Cl | > 20 µM
4) CN(C)Cc1nc2c(O)c(Cl)cc(Cl)c2c(=O)n1C | > 30 µM

[Q] Entry CCNCc1nc2c(O)c(Cl)cc(Cl)c2c(=O)n1CC has what IC50?
[A] > 30 µM

###

// reported Metabolism (Predicted EH), Hepatocytes: Human per item
assay: Metabolism in hepatocytes (predicted EH), human; assay type: in vitro ADME
Respond with the number and no other words.

1) CN(C)Cc1nc2c(O)c(Cl)cc(Cl)c2c(=O)n1C [Compound F4269] | 0.38
2) CCN(CC)Cc1nc2c(O)c(Cl)cc(Cl)c2c(=O)n1CC1CC1 [Compound F4385] | 0.55
3) CCn1c(CN(C)C)nc2c(O)c(Cl)cc(Cl)c2c1=O.Cl [Compound F4268] | 0.28
4) CN(C)Cc1nc2c(O)c(Cl)cc(Cl)c2c(=O)n1CC1CC1 [Compound F4267] | 0.44
5) Br.CCNCc1nc2c(O)c(Cl)cc(Cl)c2c(=O)n1C [Compound F4496] | 0.43

[Q] Entry CCNCc1nc2c(O)c(Cl)cc(Cl)c2c(=O)n1CC [Compound F4495] has what Metabolism (Predicted EH), Hepatocytes: Human?
[A] 0.22

[Q] Another: CNCc1nc2c(O)c(Cl)cc(Cl)c2c(=O)n1C [Compound F4161]
[A] 0.20

###

// reported pIC50 per item
biological target: CYP1A2 (Homo sapiens, UniProt P05177); construct: using a specific substrate approach in human liver microsomes; from tissue; host or cells: human liver microsomes; assay: CYP450 inhibition, specific substrate approach in human liver microsomes: CYP1A2; type: in vitro ADME
Sequence (P05177 whole entry): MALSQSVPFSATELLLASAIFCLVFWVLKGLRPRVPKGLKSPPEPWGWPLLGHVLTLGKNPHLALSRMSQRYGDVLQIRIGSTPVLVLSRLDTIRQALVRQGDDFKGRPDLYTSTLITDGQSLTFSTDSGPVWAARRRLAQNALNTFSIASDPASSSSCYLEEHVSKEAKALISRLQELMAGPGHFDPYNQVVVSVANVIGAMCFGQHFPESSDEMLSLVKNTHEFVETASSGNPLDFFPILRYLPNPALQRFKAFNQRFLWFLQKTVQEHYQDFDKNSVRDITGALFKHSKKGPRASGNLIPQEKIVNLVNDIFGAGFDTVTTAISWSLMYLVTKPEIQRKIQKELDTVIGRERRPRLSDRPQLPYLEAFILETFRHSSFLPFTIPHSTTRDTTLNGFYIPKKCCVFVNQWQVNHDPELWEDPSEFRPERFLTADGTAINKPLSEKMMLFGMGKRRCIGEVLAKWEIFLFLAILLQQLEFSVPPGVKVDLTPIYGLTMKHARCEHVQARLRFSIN
pIC50 (log units): -log10 of the concentration in mol/L.

Please review the following examples before continuing.
1. CCN(CC)Cc1nc2c(O)c(Cl)cc(Cl)c2c(=O)n1CC1CC1 [Compound F4385] | 4.87
2. CN(C)Cc1nc2c(O)c(Cl)cc(Cl)c2c(=O)n1CC1CC1 [Compound F4267] | 4.82

[Q] Entry CN(C)Cc1nc2c(O)c(Cl)cc(Cl)c2c(=O)n1C [Compound F4269] has what pIC50?
[A] 4.62

[Q] Another: CCNCc1nc2c(O)c(Cl)cc(Cl)c2c(=O)n1CC [Compound F4495]
[A] 4.86

[Q] Another: Br.CCNCc1nc2c(O)c(Cl)cc(Cl)c2c(=O)n1C [Compound F4496]
[A] 4.66

###

test system: Fe-DA; assay: H2O2 assay, Fe-DA (% cf. Fe 0.4 μM/DA 50 μM); assay type: biochemical; conditions: Fe 0.4 μM/DA 50 μM
Param threshold (60%) applies to Fe-DA % cf. Fe 0.4 μM/DA 50 μM; output yes when value >= threshold, no when value < threshold.

[Q] Exam item: decide whether the reported Fe-DA % cf. Fe 0.4 μM/DA 50 μM for CCNCc1nc2c(O)c(Cl)cc(Cl)c2c(=O)n1CC [Compound F4495] is at least 60%.
[A] no
